These entries and their values trace back to patent US9157077B2.

Measured IC50 of individual entries
System: cell lines
experiment-description: Selected cell proliferation inhibition data: cytotoxicity and IC50 determination (MTS/PMS, 72 hours), Tables 27 and 28
Assay type: cell-based
applied-conditions: Homo sapiens; RPMI 8226 cell line, 72 hours, MTS; read-out: IC50 values, RPMI 8226
assay-endpoint: IC50 (µM)

molecule="COc1cccc(CNCC2CCN(c3nccc(/C=C4\\SC(=O)NC4=O)n3)CC2)n1 [Example 183]" assay_endpoint=IC50 unit_descriptor=µM assay_result=9.6
molecule="COc1cccc2ccc(CNCC3CCN(c4nccc(/C=C5\\SC(=O)NC5=O)n4)CC3)nc12 [Example 189]" assay_endpoint=IC50 unit_descriptor=µM assay_result=8.32
molecule="O=C1NC(=O)/C(=C/c2ccnc(N3CCC(CNCc4nccc5ccccc45)CC3)n2)S1 [Example 182]" assay_endpoint=IC50 unit_descriptor=µM assay_result=11.9
molecule="O=C1NC(=O)/C(=C/c2ccnc(NC3CNc4ccccc4C3)n2)S1 (centres unmarked) [Example 140]" assay_endpoint=IC50 unit_descriptor=µM assay_result=11.2
molecule="O=C1NC(=O)/C(=C/c2ccnc(N3CCC(CNCc4ccc5ccccc5n4)CC3)n2)S1 [Example 180]" assay_endpoint=IC50 unit_descriptor=µM assay_result=9.13
